# assay.procedure: Pharmacokinetics: serum concentration after single i.p. injection
# Format: in vivo, C57Bl/6 mice
# test.conditions: C57Bl/6, serum, ip; 10 mg/kg i.p., mouse; read-out: area under the concentration-time curve (AUC0-∞)
result.type: AUC(0-inf)

Lookup: Record request: AUC(0-inf) value, item O=c1c2cccc3cccc(c32)c2nc3ccc(Cl)cc3n12 [10-Cl-BBQ]
Found: 102 ng·h/mL

---

# assay.procedure: Pharmacokinetics: serum concentration after single i.p. injection
# Assay type: in vivo, C57Bl/6 mice
# test.conditions: C57Bl/6, serum, ip; 10 mg/kg i.p., mouse, one compartment model
result.type: half-life

Lookup: What value of half-life has been recorded for this entry: O=c1c2cccc3cccc(c32)c2nc3ccc(Cl)cc3n12
Found: ~2 h

---

# assay.procedure: Pharmacokinetics: serum concentration after single i.p. injection
# Type: in vivo, C57Bl/6 mice
# test.conditions: C57Bl/6, serum, ip; 10 mg/kg i.p., mouse; read-out: volume of distribution/bioavailability (V/F)
result.type: Vd/F (L)
Note: unit L is implicit; provide only the numeric part.

Lookup: For the molecule shown here, O=c1c2cccc3cccc(c32)c2nc3ccc(Cl)cc3n12 , give the reported Vd/F.
Found: 5.66

---

Let's go through some recorded pIC50 values for AhR together.
# pIC50 = -log10(concentration in molar units)

Below are worked cases with known answers.
O=c1c2cccc3cccc(c32)c2nc3ccc(Cl)cc3n12	8.59
O=c1c2ccc(Cl)c3cccc(c32)c2nc3cc(Cl)ccc3n12	8.28
Clc1cc2c(cc1Cl)Oc1cc(Cl)c(Cl)cc1O2 [TCDD, 2,3,7,8-tetrachlorodibenzo-p-dioxin, reference compound]	8.33

From here, focus on the item given below.
Lookup: Please state recorded pIC50 (tested on AhR) of O=c1c2cccc3cccc(c32)c2nc3ccccc3n12
Found: 7.86

---

# assay.procedure: Pharmacokinetics: serum concentration after single i.p. injection
# Type: in vivo, C57Bl/6 mice
# test.conditions: C57Bl/6, serum, ip; 10 mg/kg i.p., mouse; read-out: maximum concentration reached in serum (Cmax)
result.type: Cmax (ng/mL)
Write the value in ng/mL as a bare number.

Lookup: Consider the compound shown here: O=c1c2cccc3cccc(c32)c2nc3ccc(Cl)cc3n12 What is its recorded Cmax?
Found: 21.5
